Reference source for all entries: paper PMC3253551

# Target or system: T1, MPER peptide QQEKNEQELLELDKWASLWNWFNI (binding analysis in membrane environment) (HIV-1 HXB2)
# T1 chain: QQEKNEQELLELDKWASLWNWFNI
# Experiment: SPR
Readout name: Kd (nM)
Output spec: scalar in nM, unitless text.

Q: GET /values?readout=Kd&item= 2F5m L100AS F100BS monoclonal antibody (antibody, V domains shown) VH: RITLKESGPPLVKPTQTLTLTCSFSGFSLSDFGVGVGWIRQPPGKALEWLAIIYSDDDKRYSPSLNTRLTITKDTSKNQVVLVMTRVSPVDTATYFCAHRRGPTTSSGVPIARGPVNAMDVWGQGITVTISS VL: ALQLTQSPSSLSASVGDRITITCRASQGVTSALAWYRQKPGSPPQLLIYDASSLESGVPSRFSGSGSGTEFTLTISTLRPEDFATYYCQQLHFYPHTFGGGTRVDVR
A: 476

Q: GET /values?readout=Kd&item= 2F5m I100FS monoclonal antibody (antibody, V domains shown) VH: RITLKESGPPLVKPTQTLTLTCSFSGFSLSDFGVGVGWIRQPPGKALEWLAIIYSDDDKRYSPSLNTRLTITKDTSKNQVVLVMTRVSPVDTATYFCAHRRGPTTLFGVPSARGPVNAMDVWGQGITVTISS VL: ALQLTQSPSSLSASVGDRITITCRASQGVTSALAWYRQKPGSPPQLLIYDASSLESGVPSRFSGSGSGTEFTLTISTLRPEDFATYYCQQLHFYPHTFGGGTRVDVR
A: 28

Q: GET /values?readout=Kd&item= 2F5m F100BS monoclonal antibody (antibody, V domains shown) VH: RITLKESGPPLVKPTQTLTLTCSFSGFSLSDFGVGVGWIRQPPGKALEWLAIIYSDDDKRYSPSLNTRLTITKDTSKNQVVLVMTRVSPVDTATYFCAHRRGPTTLSGVPIARGPVNAMDVWGQGITVTISS VL: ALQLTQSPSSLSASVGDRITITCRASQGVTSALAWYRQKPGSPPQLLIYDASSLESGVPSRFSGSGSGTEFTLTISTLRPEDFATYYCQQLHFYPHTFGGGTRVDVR
A: 97

Q: GET /values?readout=Kd&item= 2F5 broadly neutralizing monoclonal antibody, wild type (antibody, V domains shown) VH: RITLKESGPPLVKPTQTLTLTCSFSGFSLSDFGVGVGWIRQPPGKALEWLAIIYSDDDKRYSPSLNTRLTITKDTSKNQVVLVMTRVSPVDTATYFCAHRRGPTTLFGVPIARGPVNAMDVWGQGITVTISS VL: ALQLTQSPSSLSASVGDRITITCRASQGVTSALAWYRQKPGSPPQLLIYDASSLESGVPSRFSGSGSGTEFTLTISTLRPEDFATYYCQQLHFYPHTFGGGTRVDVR
A: 3.1
